Each record here notes measured PrP-res formation relative to control.
target: Major prion protein (Mus musculus); test: Inhibition of mouse recombinant PrP interaction with scrapie mouse brain PrP-res assessed as PrP-res formation at 100 uM after 30 mins by aggregation assay relative to control
READOUT: PrP-res formation relative to control

H-PAGAAAAGAVV-NH2; 28%
H-KHAAPAAAAGAVV-NH2; 44%
H-AAGAAAAGAVV-NH2; 17%
H-AAGAAAAG-NH2; 23%
H-HPAGAAAAGA-NH2; 11%

----------
molecular target: Major prion protein (Mus musculus) (UniProt P04925); test: Inhibition of manganese-induced aggregation in mouse recombinant PrP assessed as PrP-res formation at 100 uM after 30 mins relative to control; set-up: scale not given: the % may be the effect or the level left
Sequence (P04925 whole entry): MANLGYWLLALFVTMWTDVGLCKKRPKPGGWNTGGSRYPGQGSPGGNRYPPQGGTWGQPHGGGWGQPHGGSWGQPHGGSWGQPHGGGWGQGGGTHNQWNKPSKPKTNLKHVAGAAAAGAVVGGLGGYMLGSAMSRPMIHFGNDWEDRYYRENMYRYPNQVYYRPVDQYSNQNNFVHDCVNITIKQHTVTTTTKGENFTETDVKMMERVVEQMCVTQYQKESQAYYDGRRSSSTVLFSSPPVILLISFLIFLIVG
Peptide text beside a SMILES is read from it.
Tick YES if Activity is 90% or greater. Tick NO if Activity is less than 90%.

C[C@H](NC(=O)CNC(=O)[C@@H]1CCCN1C(=O)[C@H](C)NC(=O)[C@H](C)NC(=O)[C@H](C)NC(=O)[C@@H]1CCCN1C(=O)[C@H](C)NC(=O)[C@@H](C)N)C(N)=O; NO
C[C@H](NC(=O)CN)C(=O)N1CCC[C@H]1C(N)=O (H-Gly-Ala-Pro-NH2); YES
C[C@H](NC(=O)[C@@H]1CCCN1C(=O)[C@@H](C)N)C(N)=O; YES
C[C@H](NC(=O)[C@@H]1CCCN1C(=O)[C@H](C)NC(=O)CN)C(=O)O (H-GAPA-OH); YES
C[C@H](NC(=O)[C@H](C)NC(=O)[C@H](C)NC(=O)[C@H](C)NC(=O)[C@@H]1CCCN1C(=O)[C@H](C)NC(=O)[C@@H](C)N)C(N)=O; NO
C[C@H](NC(=O)[C@H](C)NC(=O)[C@H](C)NC(=O)[C@H](C)NC(=O)[C@@H]1CCCN1C(=O)[C@H](C)NC(=O)[C@@H](C)N)C(=O)NCC(N)=O; NO

----------
tested on: brain; test: Antiprion activity against Scrapie prion protein-infected mouse brain cells assessed as remaining PrP-res level at 100 uM after 4 days by Western blotting relative to control; format: tissue-based
Peptide text beside a SMILES is read from it.
READOUT: Activity (%)

C[C@H](NC(=O)CNC(=O)[C@@H]1CCCN1C(=O)[C@H](C)NC(=O)[C@H](C)NC(=O)[C@H](C)NC(=O)CNC(=O)[C@H](C)NC(=O)[C@@H](C)N)C(N)=O; 81
NCC(=O)N1CCC[C@H]1C(=O)N1CCC[C@H]1C(N)=O (H-Gly-Pro-Pro-NH2); 25
C[C@H](NC(=O)CNC(=O)[C@H](C)NC(=O)[C@@H](C)N)C(=O)N[C@@H](C)C(=O)N[C@@H](C)C(=O)N1CCC[C@H]1C(=O)NCC(N)=O; 108
CC(C)[C@H](NC(=O)[C@H](C)NC(=O)CNC(=O)[C@@H]1CCCN1C(=O)[C@H](C)NC(=O)[C@H](C)NC(=O)[C@H](C)NC(=O)CNC(=O)[C@H](C)NC(=O)[C@@H](C)N)C(N)=O; 129
C[C@H](NC(=O)[C@H](C)NC(=O)[C@H](C)NC(=O)[C@H](C)NC(=O)[C@@H]1CCCN1C(=O)[C@H](C)NC(=O)[C@@H](C)N)C(N)=O; 195

----------
test system: brain; test: Antiprion activity against Scrapie prion protein-infected mouse brain cells assessed as remaining PrP-res level at 100 uM after 4 days by Western blotting relative to control; type: tissue-based
Peptide text beside a SMILES is read from it.
READOUT: Activity (%)

C[C@H](NC(=O)[C@@H]1CCCN1C(=O)[C@@H]1CCCN1)C(N)=O (H-Pro-Pro-Ala-NH2); 10
CC(C)[C@H](NC(=O)[C@H](C)NC(=O)CNC(=O)[C@H](C)NC(=O)[C@H](C)NC(=O)[C@H](C)NC(=O)[C@H](C)NC(=O)[C@@H]1CCCN1C(=O)[C@H](C)NC(=O)[C@@H](C)N)C(N)=O; 148
C[C@H](NC(=O)[C@@H](C)N)C(=O)N1CCC[C@H]1C(=O)NCC(N)=O; 100
CC(C)[C@H](NC(=O)[C@@H](NC(=O)[C@H](C)NC(=O)CNC(=O)[C@@H]1CCCN1C(=O)[C@H](C)NC(=O)[C@H](C)NC(=O)[C@H](C)NC(=O)CNC(=O)[C@H](C)NC(=O)[C@@H](C)N)C(C)C)C(N)=O; 5
C[C@H](NC(=O)CNC(=O)[C@@H]1CCCN1C(=O)[C@H](C)NC(=O)[C@H](C)NC(=O)[C@H](C)NC(=O)CNC(=O)[C@@H]1CCCN1C(=O)[C@@H](C)N)C(N)=O; 7
C[C@H](NC(=O)[C@@H]1CCCN1C(=O)[C@@H](C)N)C(N)=O; 45
CC(C)[C@H](NC(=O)[C@@H](NC(=O)[C@H](C)NC(=O)CNC(=O)[C@H](C)NC(=O)[C@H](C)NC(=O)[C@H](C)NC(=O)[C@H](C)NC(=O)[C@@H]1CCCN1C(=O)[C@H](C)NC(=O)[C@@H](C)N)C(C)C)C(N)=O; 14

Hello, the source for this data is ChEMBL document CHEMBL1140991, in case you need it.
